B1: CD2-associated protein, residues 271 to 331; numbered along this chain, Q9Y5K6 (parent)
chain: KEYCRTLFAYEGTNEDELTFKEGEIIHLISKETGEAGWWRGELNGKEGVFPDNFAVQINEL

variants of: B1; assay: abundance fitness (aPCA) (normalised: wild type 0, dead -1); higher = more abundant; growth selection in yeast, the domain comes from the species named; settings: Homo sapiens
Hi there, I'd appreciate the recorded abundance fitness for every entry that follows.
Give bare numbers.

variantLabel	measurementLabel	endpointResult
W38K	abundance fitness	-0.034

For each of the variants below, note its abundance fitness.
1. I58P
2. W39G
3. L18D
4. E17N
5. E60M

1: -0.431; 2: -0.615; 3: -0.739; 4: -0.755; 5: -0.42
